Origin of measurements: patent US6096788A

Measurement Protocol: Therapeutic index in infected mice (antimalaria activity compared with semi-chronic toxicity)
Type: in vivo
Experimental Parameters: mouse, in vivo, i.p. or s.c., twice a day for four days, ratio of activity over toxicity (LD50)
Values of selectivity ratio strictly less than 20 map to label 1, and values of at least 20 map to label 0.

[[record]]
compound = "CCC[N+](C)(CC)CCCCCCCCCCCCCCCCCCCCCC[N+](C)(CC)CCC (centres unmarked)"
assigned_label = "label 0"

[[record]]
compound = "CCC[N+](C)(CC)CCCCCCCCCCCCCCCCC[N+](C)(CC)CCC.[Br-].[Br-] (centres unmarked)"
assigned_label = "label 1"

[[record]]
compound = "C#CC[N+](C)(C)CCCCCCCCCCCCCC[N+](C)(C)CC#C.[Br-].[Br-]"
assigned_label = "label 1"

[[record]]
compound = "CCC[N+](CCC)(CCCCCCCCCCCCCC[N+](CCC)(CCC)CCOCC)CCOCC.[Br-].[Br-]"
assigned_label = "label 0"

[[record]]
compound = "C=CC[N+](C)(C)CCCCCCCCCCCCCC[N+](C)(C)CC=C.[Br-].[Br-]"
assigned_label = "label 1"

[[record]]
compound = "CC[N+](C)(CC)CCCCCCCCCCCCCCCCCC[N+](C)(CC)CC"
assigned_label = "label 1"

[[record]]
compound = "C[N+]1(CCCCCCCCCCCCCCCCCCCCCC[N+]2(C)CCCC2CO)CCCC1CO (centres unmarked)"
assigned_label = "label 0"

[[record]]
compound = "CCC[N+](C)(CC)CCCCCCCCCCCCCCCCCC[N+](C)(CC)CCC.[Br-].[Br-] (centres unmarked)"
assigned_label = "label 1"

[[record]]
compound = "CCC[N+](C)(CC)CCCCCCCCCCCCCCCC[N+](C)(CC)CCC.[Br-].[Br-] (centres unmarked)"
assigned_label = "label 1"

[[record]]
compound = "CCC[N+](CCC)(CCO)CCCCCCCCCCCCCCCCCCCC[N+](CCC)(CCC)CCO.[Br-].[Br-]"
assigned_label = "label 0"

